Target: T1, 4H717-bA
T1 chain: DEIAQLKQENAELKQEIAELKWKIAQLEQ
Experiment: two-hybrid library CCNG1;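 further: natural log of median RNA to DNA barcode read ratio; higher means stronger binding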
# label = yes (1) if interaction score < -0.5 else no (0)

These recorded examples may help you get a feel for the data.
[ask] State whether -0.5 exceeds interaction score recorded for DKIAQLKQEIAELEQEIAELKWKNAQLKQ [4H2576-bA] .
[reply] yes (1)

[ask] // same read-out, input: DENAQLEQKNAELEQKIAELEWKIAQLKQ [4H1446-bA]
[reply] no (0)

[ask] // same read-out, input: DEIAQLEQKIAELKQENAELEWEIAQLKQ [4H338-bA]
[reply] yes (1)

Others:
[ask] State whether -0.5 exceeds interaction score recorded for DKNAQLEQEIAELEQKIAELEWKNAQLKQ [4H3112-bA] .
[reply] no (0)
